# System: CAMK1G
# COND: concentration: 1 μM, replicates: in singlicate; n = 1;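 note: KINOMEscan kinase panel screen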

MOLECULE: O=C(Nc1ccc2c(c1)OCO2)NC1CCN(c2ccnc(NCc3ccc(F)cc3)n2)CC1
%Inh [%]: 0
//
MOLECULE: COc1cc(Nc2nccc(N3CCC(NC(=O)C(C)c4ccc(Cl)cc4)C3)n2)cc(OC)c1OC (centres unmarked)
%Inh [%]: 0
//
MOLECULE: CCn1c(-c2ccoc2)nc2cnccc21
%Inh [%]: 0
//
MOLECULE: OCCCNc1nccc(-c2c(-c3cccc(C(F)(F)F)c3)nn3cc(C(F)(F)F)ccc23)n1
%Inh [%]: 1
//
MOLECULE: COc1cc2ncn(-c3cc(OCc4ccncc4Br)c(C(N)=O)s3)c2cc1OC
%Inh [%]: 7

---

# Tested on: PIK3C2G
# COND: concentration: 1 μM, replicates: in singlicate; n = 1
ASSAY ENDPOINT: %Inh

COMPOUND: COc1cc(OC)cc(-c2cc3cnc(N)nc3nc2NC(=O)NC(C)(C)C)c1
MEASUREMENT: 74%
//
COMPOUND: COc1cc2ncn(-c3cc(OCc4ccc(S(C)(=O)=O)cc4)c(C(N)=O)s3)c2cc1OC
MEASUREMENT: 29%
//
COMPOUND: Nc1n[nH]c2nnc(-c3ccccc3)c(-c3ccccc3)c12
MEASUREMENT: 0%
//
COMPOUND: CN(C)c1cc(-c2ccc3c(N)n[nH]c3c2)nc(N)n1
MEASUREMENT: 0%
//
COMPOUND: Cc1nnc(-c2ccc3ncn(-c4ccc(S(C)=O)cc4)c3c2)o1 (stereo not drawn)
MEASUREMENT: 0%
//
COMPOUND: O=C(NCc1cccs1)c1cc(C(=O)c2c(Cl)cccc2Cl)c[nH]1
MEASUREMENT: 0%
//
COMPOUND: Cc1cccc(-c2nc(Nc3ccc4c(cnn4C)c3)c3ccccc3n2)n1
MEASUREMENT: 44%
//
COMPOUND: COc1cc2nccc(Nc3cccc(Oc4ccccc4)c3)c2cc1OC.Cl
MEASUREMENT: 0%
//
COMPOUND: Nc1n[nH]c2ncc(-c3ccccc3)cc12
MEASUREMENT: 0%

---

# Tested on: SBK1
# COND: concentration: 1 μM, replicates: in singlicate; n = 1
ASSAY ENDPOINT: %Inh (%)

MOLECULE: COc1cccc(C2=C(N(C)c3ccccc3)C(=O)NC2=O)c1
ASSAY ENDPOINT: %Inh
MEASUREMENT: 0

MOLECULE: COc1cc(Nc2nccc(N3CCC(NC(=O)C(C)c4ccc(Cl)cc4)C3)n2)cc(OC)c1OC (stereo not drawn)
ASSAY ENDPOINT: %Inh
MEASUREMENT: 12

MOLECULE: CN1C(=O)C(Nc2cc(Cl)c(O)c(Cl)c2)=C(c2ccc(Cl)cc2)C1=O
ASSAY ENDPOINT: %Inh
MEASUREMENT: 0

MOLECULE: CCn1c(-c2ccoc2)nc2cnccc21
ASSAY ENDPOINT: %Inh
MEASUREMENT: 0

MOLECULE: Cc1ccccc1COc1cc(-n2cnc3cc(Cl)ccc32)sc1C(N)=O
ASSAY ENDPOINT: %Inh
MEASUREMENT: 0

MOLECULE: COc1cc2ncn(-c3cc(OCc4ccncc4Br)c(C(N)=O)s3)c2cc1OC
ASSAY ENDPOINT: %Inh
MEASUREMENT: 2

MOLECULE: O=C(NCCNc1ccnc(Nc2ccc(F)cc2)n1)Nc1ccc2c(c1)OCO2
ASSAY ENDPOINT: %Inh
MEASUREMENT: 6

MOLECULE: O=C(Nc1n[nH]c2cc(-c3ccccc3F)ccc12)C1CC1
ASSAY ENDPOINT: %Inh
MEASUREMENT: 17

MOLECULE: COc1ccc(CNC(=O)NC2CCN(c3ccnc(Nc4ccc(F)cc4)n3)C2)cc1 (stereo not drawn)
ASSAY ENDPOINT: %Inh
MEASUREMENT: 0
